B1: library; a variant is named by its letters at N, in order (parent)
chain: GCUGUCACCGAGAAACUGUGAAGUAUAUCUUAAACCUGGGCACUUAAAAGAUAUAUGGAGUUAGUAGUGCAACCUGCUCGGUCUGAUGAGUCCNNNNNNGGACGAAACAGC

# Variants of: B1
# PROTOCOL_DETAILS: FACS-Seq fitted mean relative fluorescence mCherry/BFP with ligand (log10 relative fluorescence); HEK293T; ligand: cyclic di-GMP (c-di-GMP-II aptamer); ligand concentration (+) FACS-Seq: 1 mM; higher = higher reporter protein expression
# RUN_PARAMETERS: ligand present: yes
ASSAY_METRIC: FACS-Seq fitted mean (log10)
Give the figure by itself; no unit, no explanation.

Example entries begin here.
>>> numeric_value("CCGGUA")
-0.223
>>> numeric_value("GAUCAU")
-0.0439
>>> numeric_value("AGCAAU")
-0.638
>>> numeric_value("GCCGCU")
0.0767
>>> numeric_value("GAAGCG")
-0.268

What does the record list as FACS-Seq fitted mean (log10) for GUUCGA ?
0.045

What does the record list as FACS-Seq fitted mean (log10) for GAUGCA ?
0.358
